# Measured target: human ether a go-go related gene (hERG) K+ channel (Homo sapiens)
# Construct: Chinese Hamster Ovary cell line stably expressing the full-length hERG potassium channel
# Sequence (Q12809 whole entry): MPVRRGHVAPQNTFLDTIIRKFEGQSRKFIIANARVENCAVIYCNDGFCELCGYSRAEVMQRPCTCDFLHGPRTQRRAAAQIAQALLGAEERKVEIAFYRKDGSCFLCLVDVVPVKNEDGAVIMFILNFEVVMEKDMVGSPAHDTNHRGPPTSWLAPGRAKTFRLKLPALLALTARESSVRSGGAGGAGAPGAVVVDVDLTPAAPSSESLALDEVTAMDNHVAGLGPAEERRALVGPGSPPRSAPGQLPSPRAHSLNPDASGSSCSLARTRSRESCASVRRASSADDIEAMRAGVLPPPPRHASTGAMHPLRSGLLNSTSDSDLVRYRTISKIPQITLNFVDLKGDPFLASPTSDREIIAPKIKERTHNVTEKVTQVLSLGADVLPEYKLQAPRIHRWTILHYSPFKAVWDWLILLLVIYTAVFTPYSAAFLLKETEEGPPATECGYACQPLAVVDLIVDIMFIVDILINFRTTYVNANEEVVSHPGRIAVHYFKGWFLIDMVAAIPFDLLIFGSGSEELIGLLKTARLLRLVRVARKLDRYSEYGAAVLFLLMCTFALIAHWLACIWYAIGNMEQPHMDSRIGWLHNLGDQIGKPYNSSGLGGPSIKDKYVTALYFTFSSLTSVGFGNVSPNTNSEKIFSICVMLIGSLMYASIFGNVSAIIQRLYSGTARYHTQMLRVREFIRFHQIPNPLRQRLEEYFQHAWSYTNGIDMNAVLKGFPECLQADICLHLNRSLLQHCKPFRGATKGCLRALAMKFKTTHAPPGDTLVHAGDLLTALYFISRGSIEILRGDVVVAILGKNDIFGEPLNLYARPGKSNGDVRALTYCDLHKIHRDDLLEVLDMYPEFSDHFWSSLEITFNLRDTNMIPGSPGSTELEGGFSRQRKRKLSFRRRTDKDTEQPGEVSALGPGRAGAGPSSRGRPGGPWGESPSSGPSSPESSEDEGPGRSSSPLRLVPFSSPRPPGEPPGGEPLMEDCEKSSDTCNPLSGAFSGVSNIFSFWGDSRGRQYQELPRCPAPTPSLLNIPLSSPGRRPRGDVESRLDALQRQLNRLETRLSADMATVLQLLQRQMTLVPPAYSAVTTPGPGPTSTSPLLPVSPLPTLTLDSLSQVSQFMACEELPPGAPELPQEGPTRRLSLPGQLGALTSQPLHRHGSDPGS
# Run description: hERG inhibition assay, QPatch HTX automated electrophysiology
# Run conditions: CHO cell line stably expressing hERG, whole-cell patch clamp, maximum test concentration 300 μM
For each of the molecules below, state its IC50.

A selection of reference data follows.
Cn1c(=O)cc(CN)c2ccc(F)c(CCNC[C@H]3CN(c4ccc5c(n4)NC(=O)CO5)C(=O)O3)c21    > 300 µM
O=C1COc2ncc(N3C[C@H](CNCCc4c(F)ccc5ccc(=O)n(CCO)c45)OC3=O)nc2N1    > 300 µM

Kindly consider the entry below.
**Query** Report IC50 for Cn1c(=O)ccc2ccc(F)c(CCNCC[C@H]3CN(c4cnc5c(n4)NC(=O)CO5)C(=O)O3)c21 (single isomer, unassigned) please.
**Result** > 300 µM
